These entries and their values trace back to patent USRE38330E1.

Catalogue of pIC50 readings, one per entry.
- assayed_target: cross-linking of glycated bovine serum albumin (AGE-BSA) to the rat tail tendon collagen (Bos taurus, UniProt P02769)
- Construct: glycated bovine serum albumin (AGE-BSA); BSA from bovine serum, glycated in house
- Sequence (P02769 25-607): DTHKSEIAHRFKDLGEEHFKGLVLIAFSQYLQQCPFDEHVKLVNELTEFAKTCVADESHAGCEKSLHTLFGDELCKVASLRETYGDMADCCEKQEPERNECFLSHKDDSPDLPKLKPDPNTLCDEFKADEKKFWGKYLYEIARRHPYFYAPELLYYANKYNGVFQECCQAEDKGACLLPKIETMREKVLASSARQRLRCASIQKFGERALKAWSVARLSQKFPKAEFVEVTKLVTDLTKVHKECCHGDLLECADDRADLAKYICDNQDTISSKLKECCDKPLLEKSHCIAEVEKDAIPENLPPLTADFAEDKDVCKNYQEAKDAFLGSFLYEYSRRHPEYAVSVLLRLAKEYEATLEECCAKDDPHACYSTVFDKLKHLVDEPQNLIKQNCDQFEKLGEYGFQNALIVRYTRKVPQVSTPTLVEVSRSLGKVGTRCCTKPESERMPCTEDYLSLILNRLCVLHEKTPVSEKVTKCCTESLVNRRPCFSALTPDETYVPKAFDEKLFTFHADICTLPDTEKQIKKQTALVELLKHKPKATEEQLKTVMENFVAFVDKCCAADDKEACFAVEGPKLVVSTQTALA
- protocol_description: Inhibition of cross-linking of glycated BSA (AGE-BSA) to rat tail tendon collagen coated 96-well plate (ELISA)
pIC50: −log10 of the molar value.

substance_smiles	pIC50
COC(=O)C[n+]1ccsc1	3.86
Cc1c(CCO)sc[n+]1CC(=O)c1ccc(Br)cc1	2.35
Cc1c[n+](CC(=O)c2ccccc2)cs1	1.86
Cc1sc[n+](CC(=O)c2ccc(Br)cc2)c1C	2.53
Cc1c[n+](CC(N)=O)cs1.[Br-]	4.54
NC(=O)C[n+]1csc2ccccc21.[Br-]	3.21
Cc1sc[n+](CC(=O)c2ccccc2)c1C	1.31
